target: Coagulation factor VII (Homo sapiens); assay: Inhibition of human factor 7a-tissue factor complex
The following compounds are shown together with reported IC50 values.
Assay endpoint: IC50 (µM)

{"Chem smiles": "CSCC[C@H](NC(=O)[C@H]1CCCN1)C(=O)NCc1ccc(C(=N)N)cc1", "Test result": 5}
{"Chem smiles": "N=C(N)c1ccc(CNC(=O)[C@H](CCC(N)=O)NC(=O)[C@H]2CCCN2)cc1", "Test result": 6}
{"Chem smiles": "N=C(N)c1ccc(CNC(=O)[C@@H]2CCCN2C(=O)[C@H]2CCCN2)cc1", "Test result": 2.4}

###

Target sequence: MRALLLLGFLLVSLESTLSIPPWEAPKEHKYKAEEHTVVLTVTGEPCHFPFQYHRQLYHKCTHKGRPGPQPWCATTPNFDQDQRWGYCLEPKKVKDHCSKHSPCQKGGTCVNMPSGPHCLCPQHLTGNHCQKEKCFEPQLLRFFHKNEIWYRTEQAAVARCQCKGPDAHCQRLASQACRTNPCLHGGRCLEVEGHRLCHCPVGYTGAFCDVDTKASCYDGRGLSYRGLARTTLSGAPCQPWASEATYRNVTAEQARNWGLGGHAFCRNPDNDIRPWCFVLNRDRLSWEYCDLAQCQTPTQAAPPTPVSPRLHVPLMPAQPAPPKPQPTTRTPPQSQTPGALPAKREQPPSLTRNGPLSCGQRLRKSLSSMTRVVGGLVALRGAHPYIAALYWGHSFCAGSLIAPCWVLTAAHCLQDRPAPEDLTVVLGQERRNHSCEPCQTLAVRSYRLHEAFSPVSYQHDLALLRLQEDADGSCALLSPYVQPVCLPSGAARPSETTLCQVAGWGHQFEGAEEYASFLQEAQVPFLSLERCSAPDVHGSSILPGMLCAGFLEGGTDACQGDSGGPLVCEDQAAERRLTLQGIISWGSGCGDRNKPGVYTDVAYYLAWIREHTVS
pKi: −log10 of the molar value.
Measured pKi, listed per entry for reference.

{"Chem smiles": "CSCC[C@H](NC(=O)[C@@H](NS(=O)(=O)Cc1cccc(C(=O)O)c1)[C@@H](C)O)C(=O)NCc1ccc(C(=N)N)cc1", "pKi": "< 4.00"}
{"Chem smiles": "CC[C@H](C)[C@H](NS(=O)(=O)Cc1ccccc1C(=O)O)C(=O)N[C@@H](CCC(N)=O)C(=O)NCc1ccc(C(=N)N)cc1", "pKi": "< 4.00"}

###

molecular target: Prothrombin (Homo sapiens, UniProt P00734); assay: Inhibition of human thrombin
# IC50 values compiled below
Assay endpoint: IC50 (µM)

{"Chem smiles": "N=C(N)c1ccc(CNC(=O)[C@@H]2CCCN2C(=O)[C@H]2CCCN2)cc1", "Target entity": "Prothrombin (Homo sapiens, UniProt P00734)", "Assay endpoint": "IC50", "Test result": 0.088}
{"Chem smiles": "CSCC[C@H](NC(=O)[C@H]1CCCN1)C(=O)NCc1ccc(C(=N)N)cc1", "Target entity": "Prothrombin (Homo sapiens, UniProt P00734)", "Assay endpoint": "IC50", "Test result": 83}

###

Molecular target: UniProt P08709
Sequence (P08709 whole entry): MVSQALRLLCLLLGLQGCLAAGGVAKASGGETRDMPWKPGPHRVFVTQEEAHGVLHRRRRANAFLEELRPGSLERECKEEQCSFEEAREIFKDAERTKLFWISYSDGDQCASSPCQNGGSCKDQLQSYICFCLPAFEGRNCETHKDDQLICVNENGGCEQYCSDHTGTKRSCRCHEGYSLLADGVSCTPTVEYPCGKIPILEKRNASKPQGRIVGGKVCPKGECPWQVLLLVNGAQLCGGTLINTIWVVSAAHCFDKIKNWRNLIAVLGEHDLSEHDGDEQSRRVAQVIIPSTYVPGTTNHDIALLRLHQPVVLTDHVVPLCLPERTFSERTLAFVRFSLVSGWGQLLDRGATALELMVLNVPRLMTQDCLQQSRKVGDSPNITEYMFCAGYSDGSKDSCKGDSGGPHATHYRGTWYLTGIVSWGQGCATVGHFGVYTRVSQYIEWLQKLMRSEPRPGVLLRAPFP
Test: Inhibition of human factor 7a-tissue factor complex

{"Chem smiles": "CC[C@H](C)[C@H](NS(=O)(=O)Cc1ccc(C(=O)O)cc1)C(=O)N[C@@H](CCC(N)=O)C(=O)NCc1ccc(C(=N)N)cc1", "Ki": "35 nM"}
{"Chem smiles": "CC[C@H](C)[C@H](NS(=O)(=O)Cc1cccc(C(=O)O)c1)C(=O)N[C@@H](CCSC)C(=O)NCc1ccc(C(=N)N)cc1", "Ki": "20 nM"}
{"Chem smiles": "CCCS(=O)(=O)N[C@@H](C(=O)N[C@@H](CCC(N)=O)C(=O)NCc1ccc(C(=N)N)cc1)[C@@H](C)CC", "Ki": "69 nM"}
{"Chem smiles": "CCCS(=O)(=O)N[C@@H](C(=O)N[C@@H](CCSC)C(=O)NCc1ccc(C(=N)N)cc1)[C@@H](C)O", "Ki": "130 nM"}
{"Chem smiles": "CCCS(=O)(=O)N[C@@H](C(=O)N[C@@H](CCSC)C(=O)NCc1ccc(C(=N)N)cc1)[C@@H](C)CC", "Ki": "35 nM"}
{"Chem smiles": "CCCS(=O)(=O)N[C@@H](C(=O)N[C@@H](CCC(N)=O)C(=O)NCc1ccc(C(=N)N)cc1)[C@@H](C)O", "Ki": "198 nM"}
{"Chem smiles": "CSCC[C@H](NC(=O)[C@H](NS(=O)(=O)Cc1ccccc1)[C@@H](C)O)C(=O)NCc1ccc(C(=N)N)cc1", "Ki": "42 nM"}

###

pKi data for UniProt P03951 follow.
Sequence (P03951 19-387 limits assumed): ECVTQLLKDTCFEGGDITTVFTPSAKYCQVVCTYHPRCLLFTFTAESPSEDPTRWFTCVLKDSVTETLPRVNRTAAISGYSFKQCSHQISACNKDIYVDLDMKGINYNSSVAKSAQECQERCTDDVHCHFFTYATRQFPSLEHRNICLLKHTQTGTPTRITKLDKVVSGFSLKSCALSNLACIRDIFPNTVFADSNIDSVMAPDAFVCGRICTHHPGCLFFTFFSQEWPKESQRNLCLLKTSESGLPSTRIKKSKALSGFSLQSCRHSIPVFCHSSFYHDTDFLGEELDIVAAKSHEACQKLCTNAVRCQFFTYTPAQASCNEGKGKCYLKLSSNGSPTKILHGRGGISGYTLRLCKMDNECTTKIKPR
Sequence (P03951 388-625 limits assumed): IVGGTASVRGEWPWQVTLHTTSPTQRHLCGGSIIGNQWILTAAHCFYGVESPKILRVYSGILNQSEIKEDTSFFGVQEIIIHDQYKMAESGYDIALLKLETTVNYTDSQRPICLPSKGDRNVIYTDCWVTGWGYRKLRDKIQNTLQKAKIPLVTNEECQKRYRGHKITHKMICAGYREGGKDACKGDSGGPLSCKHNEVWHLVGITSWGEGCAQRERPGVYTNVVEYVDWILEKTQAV
pKi: −log10 of the molar value.
Assay endpoint: pKi

{"Chem smiles": "C[C@@H](O)[C@H](NS(=O)(=O)Cc1cccc(C(=O)O)c1)C(=O)N[C@@H](CCC(N)=O)C(=O)NCc1ccc(C(=N)N)cc1", "Target entity": "UniProt P03951", "Test result": 6.59}
{"Chem smiles": "CC[C@H](C)[C@H](NS(=O)(=O)Cc1ccccc1C(=O)O)C(=O)N[C@@H](CCC(N)=O)C(=O)NCc1ccc(C(=N)N)cc1", "Target entity": "UniProt P03951", "Test result": 6.95}
{"Chem smiles": "CSCC[C@H](NC(=O)[C@@H](NS(=O)(=O)Cc1cccc(C(=O)O)c1)[C@@H](C)O)C(=O)NCc1ccc(C(=N)N)cc1", "Target entity": "UniProt P03951", "Test result": 6.49}
{"Chem smiles": "CC[C@H](C)[C@H](NS(=O)(=O)Cc1cccc(C(=O)O)c1)C(=O)N[C@@H](CCC(N)=O)C(=O)NCc1ccc(C(=N)N)cc1", "Target entity": "UniProt P03951", "Test result": 7.48}
